All values here come from paper PMC3816707.

Assay: In vitro cytotoxicity, MTT-based cell viability assay
Design: species or system murine
Settings: mouse, 3T6 embryonal fibroblast cells (adherent); 3T6 murine embryonal fibroblast cell line, MTT, triplicate, mean
Experimental: In vitro cytotoxicity assays with established cell lines are useful tools for the general screening of chemicals in toxicological studies. […] With a microplate reader (Thermo Labsystems Multiskan Ascent 354, Waltham, MA, USA), the optical density of each well was measured at 540 nm against the background absorbance whose reference filter was set at 690 nm. […]
quantity: pIC50
Quick note: pIC50 values are minus log10 of concentrations in mol/L.

Illustrative cases are given below, each with its answer.
# compound, pIC50
rows = [
    ("N=C(N)c1ccc(NCCNc2ccccc2)cc1 [Compound 7]", 4.39),
    ("N=C(N)c1ccc(N2CCN(c3ccccc3)CC2)cc1 [Compound 3]", 4.25),
    ("Nc1ccc(N2CCN(c3ccc(N)cc3)CC2)cc1 [Compound 4]", 4.39),
]

Would you mind telling me what pIC50 value was observed for N=C(N)c1ccc(OCCCCCOc2ccc(C(=N)N)cc2)cc1 [Compound 1, pentamidine, reference compound] ?
5.70

I have this compound here, Nc1ccc(N2CCN(c3ccccc3)CC2)cc1 [Compound 5, 1-(4-Aminophenyl)-4-phenylpiperazine] , and I need its recorded pIC50.
4.99

Given CN(CCNc1ccc(C(=N)N)cc1)c1ccc(C(=N)N)cc1 [Compound 8] , state its recorded pIC50.
5.61

Which measured pIC50 value corresponds to CN(CCNc1ccccc1)c1ccc(C(=N)N)cc1 [Compound 9] ?
5.51

Look at this compound and give its reported pIC50. N=C(N)c1ccc(NCCNc2ccc(C(=N)N)cc2)cc1 [Compound 6]
4.52

----------
Test system: Pneumocystis carinii
Assay: In vitro anti-Pneumocystis activity, P. carinii axenic short culture (4 days)
Assay type: cell-based
Conditions: Pneumocystis carinii, 96 h, 50 µg/mL, 4 days axenic culture; read-out: Anti-Pneumocystis activity % inhibition vs. free-drug control at 50 µg/mL
The entries below are paired with their reported inhibition of growth at 50 µg/mL.
Please state the number and follow it with the unit.

The cases that follow already have their inhibition of growth at 50 µg/mL on record.
# compound, inhibition of growth at 50 µg/mL
records = [
    ("N=C(N)c1ccc(NCCNc2ccc(C(=N)N)cc2)cc1", "98.7%"),
    ("N=C(N)c1ccc(N2CCN(c3ccccc3)CC2)cc1", "99%"),
    ("CN(CCNc1ccccc1)c1ccc(C(=N)N)cc1", "88.7%"),
    ("N=C(N)c1ccc(OCCCCCOc2ccc(C(=N)N)cc2)cc1 [Compound 1, pentamidine, reference compound]", "99%"),
    ("CN(CCNc1ccc(C(=N)N)cc1)c1ccc(C(=N)N)cc1", "99%"),
]

The record that follows has no inhibition of growth at 50 µg/mL shown yet.
Entry "N=C(N)c1ccc(NCCNc2ccccc2)cc1" : reported inhibition of growth at 50 µg/mL = ?
99.5%
